- test: Peptide diluent matrix (precipitation of DMSO dissolved peptides in various liquids)
- Assay type: physicochemical
- Set-up: key: Liposome / Precipitation in diluent: PBS pH 7.4 / Precipitation in diluent: Water / Precipitation in diluent: 10% Sucrose / Precipitation in diluent: D5W (5% Dextrose USP Grade Inj): P = precipitation; NP = no precipitation
- recordedConditions: 10-20 μL DMSO dissolved peptide added to Liposome
assayEndpoint: Precipitation in diluent: Liposome

substance: H-LKDSNSWPPSNKRGFDTEDAHKSNATPVP-OH [CS6712]
result: NP
//
substance: H-SPTEPSTKLPGFDSCGNTEIAERKIKRIYGGFK-OH [CS6720]
result: NP
//
substance: H-LLTDRNTSGTTFTLLGVSDYPELQVPLFLVFLA-OH [CS6783]
result: P
//
substance: H-LTDLPGRIRVAPQQNDLDSPQQISISNAE-OH [CS6709]
result: NP
//
substance: H-DSAVDKGHPNRSALSLTPGLRIGPSGIPQAGLG-OH [CS6726]
result: NP
